B1: PhoQ; a variant is named by its letters at X, in order, P23837 (parent)
chain: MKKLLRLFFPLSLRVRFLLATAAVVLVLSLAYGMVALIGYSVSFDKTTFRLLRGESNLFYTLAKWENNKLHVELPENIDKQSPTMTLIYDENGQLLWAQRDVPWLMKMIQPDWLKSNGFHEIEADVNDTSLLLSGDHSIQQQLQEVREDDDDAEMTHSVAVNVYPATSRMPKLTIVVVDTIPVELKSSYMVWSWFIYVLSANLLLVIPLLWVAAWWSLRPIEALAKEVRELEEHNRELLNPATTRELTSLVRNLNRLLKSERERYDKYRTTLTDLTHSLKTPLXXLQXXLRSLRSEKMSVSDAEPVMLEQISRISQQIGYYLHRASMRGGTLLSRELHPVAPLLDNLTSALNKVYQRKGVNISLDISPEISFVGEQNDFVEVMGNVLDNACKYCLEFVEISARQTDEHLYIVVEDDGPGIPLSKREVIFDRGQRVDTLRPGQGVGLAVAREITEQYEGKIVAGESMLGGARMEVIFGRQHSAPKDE

variants of: B1; assay: enrichment ratio after two sorts for PhoP signalling (ratio (wild type AVST 3.29)); higher = more functional; settings: with PhoP (E. coli)
Whole data set: some 140,000 sequences, median “enrichment ratio after two sorts for PhoP signalling” near 0, cut for the highest 2% near 11. For the sample, the highest values were picked, then their nearest neighbours and some sequences at random.
In this section we review reported enrichment ratio values for a set of variants.

Solved entries (count: 3):
{"columns": ["Mutation notation", "enrichment ratio"],
 "data": [
  ["NECV", "≤ 0.25"],
  ["IPCK", "≤ 0.25"],
  ["PWSE", "≤ 0.25"]
]}

Quick one: enrichment ratio for YTGN ?
≤ 0.25

If you can, please state the reported enrichment ratio value of EKFN .
≤ 0.25

Which enrichment ratio reading was recorded for the variant YTDM ?
≤ 0.25

// lookup enrichment ratio for DASS
≤ 0.25

Reported enrichment ratio for SCTA : what is it?
12.7

What value of enrichment ratio has been reported for the following variant? MQSQ
≤ 0.25

Suppose we examine the variant DNCH ; what enrichment ratio value has been reported?
≤ 0.25

For the variant shown here, QMVR , give the reported enrichment ratio.
≤ 0.25

So what's the measured enrichment ratio for this one? KCSQ
≤ 0.25

// enrichment ratio lookup, key: TGGN
13.9

Sample AQFM — what was its enrichment ratio?
12.2

Fill in the blank: the reported enrichment ratio of THGN is ____.
≤ 0.25

Fill blank: measured enrichment ratio of the variant VVCY is ____.
≤ 0.25

Need enrichment ratio of KSSQ , thanks.
≤ 0.25

I am curious: what enrichment ratio value has been reported for AQGR ?
≤ 0.25

Which enrichment ratio value is on record for FMKW ?
≤ 0.25

Any idea what enrichment ratio was measured for NEIF ?
≤ 0.25

Given the entry WSVN , report its measured enrichment ratio.
≤ 0.25
